These entries and their values trace back to patent US11395857B2.

assay: Biodistribution of 68Ga-labeled peptide in mice bearing B16F10 mouse melanoma; type: in vivo, C57BL/6J mice; conditions: C57BL/6J, fat, iv, with BMS 470539 (MC1R-specific inhibitor), 0.5 mg co-injected, total radioactivity, 1 h p.i. blocked, co-injection of 0.5 mg BMS 470539, read-out: Biodistribution, Fat
Quantity measured: tissue uptake at 1 h (%ID/g)

>  <Compound>
CCCC[C@H](NC(=O)CN1CCC(NC(=O)CN2CCN(CC(=O)O)CCN(CC(=O)O)CCN(CC(=O)O)CC2)CC1)C(=O)N[C@H]1CC(=O)NCCCC[C@@H](C(N)=O)N(C)C(=O)[C@H](Cc2c[nH]c3ccccc23)N(C)C(=O)[C@H](CCCNC(=N)N)N(C)C(=O)[C@@H](Cc2ccccc2)NC(=O)[C@H](Cc2c[nH]cn2)N(C)C1=O [^68Ga-labeled CCZ01099, metal not drawn]

>  <Observed>
0.04

$$$$

* * *

test: Biodistribution of 177Lu-labeled αMSH analogues in mice bearing SK-MEL-1 human melanoma; details: male, NRG (NOD.Cg-Rag1tm1Mom Il2rgtm1Wjl/SzJ), mouse, testes, total radioactivity
Property: tissue uptake at 120 h; scope: individual molecules

>  <Molecule>
CCCC[C@H](NC(=O)CN1CCC(NC(=O)[C@H](CCCCNC(=O)CN2CCN(CC(=O)O)CCN(CC(=O)O)CCN(CC(=O)O)CC2)NC(=O)CNC(=O)CCCc2ccc(-c3ccc(C)cc3)cc2)CC1)C(=O)N[C@H]1CC(=O)NCCCC[C@@H](C(N)=O)N(C)C(=O)[C@H](Cc2c[nH]c3ccccc23)NC(=O)[C@H](CCCNC(=N)N)N(C)C(=O)[C@@H](Cc2ccccc2)NC(=O)[C@H](Cc2c[nH]cn2)NC1=O [^177Lu-labeled CCZ01158, metal not drawn]

>  <tissue uptake at 120 h [%ID/g]>
0.56

$$$$
>  <Molecule>
CCCC[C@H](NC(=O)CN1CCC(NC(=O)[C@H](CCCCNC(=O)CN2CCN(CC(=O)O)CCN(CC(=O)O)CCN(CC(=O)O)CC2)NC(=O)CNC(=O)CCCc2ccc(I)cc2)CC1)C(=O)N[C@H]1CC(=O)NCCCC[C@@H](C(N)=O)N(C)C(=O)[C@H](Cc2c[nH]c3ccccc23)NC(=O)[C@H](CCCNC(=N)N)N(C)C(=O)[C@@H](Cc2ccccc2)NC(=O)[C@H](Cc2c[nH]cn2)NC1=O [^177Lu-labeled CCZ01148, metal not drawn]

>  <tissue uptake at 120 h [%ID/g]>
3.03

$$$$
>  <Molecule>
CCCC[C@H](NC(=O)CN1CCC(NC(=O)[C@H](CCCCNC(=O)CN2CCN(CC(=O)O)CCN(CC(=O)O)CCN(CC(=O)O)CC2)NC(=O)[C@H](CCC(=O)O)NC(=O)CCCc2ccc(I)cc2)CC1)C(=O)N[C@H]1CC(=O)NCCCC[C@@H](C(N)=O)N(C)C(=O)[C@H](Cc2c[nH]c3ccccc23)NC(=O)[C@H](CCCNC(=N)N)N(C)C(=O)[C@@H](Cc2ccccc2)NC(=O)[C@H](Cc2c[nH]cn2)NC1=O [^177Lu-labeled CCZ01118, metal not drawn]

>  <tissue uptake at 120 h [%ID/g]>
0.16

$$$$

* * *

test: Biodistribution of 177Lu-labeled αMSH analogues in mice bearing SK-MEL-1 human melanoma; details: male, NRG (NOD.Cg-Rag1tm1Mom Il2rgtm1Wjl/SzJ), mouse, urine, total radioactivity

>  <Compound>
CCCC[C@H](NC(=O)CN1CCC(NC(=O)[C@H](CCCCNC(=O)CN2CCN(CC(=O)O)CCN(CC(=O)O)CCN(CC(=O)O)CC2)NC(=O)[C@H](CCC(=O)O)NC(=O)CCCc2ccc(I)cc2)CC1)C(=O)N[C@H]1CC(=O)NCCCC[C@@H](C(N)=O)N(C)C(=O)[C@H](Cc2c[nH]c3ccccc23)NC(=O)[C@H](CCCNC(=N)N)N(C)C(=O)[C@@H](Cc2ccccc2)NC(=O)[C@H](Cc2c[nH]cn2)NC1=O [^177Lu-labeled CCZ01118, metal not drawn]

>  <excreta dose per gram or mL at 4 h (%ID/g)>
154

$$$$
>  <Compound>
CCCC[C@H](NC(=O)CN1CCC(NC(=O)[C@H](CCCCNC(=O)CN2CCN(CC(=O)O)CCN(CC(=O)O)CCN(CC(=O)O)CC2)NC(=O)CNC(=O)CCCc2ccc(I)cc2)CC1)C(=O)N[C@H]1CC(=O)NCCCC[C@@H](C(N)=O)N(C)C(=O)[C@H](Cc2c[nH]c3ccccc23)NC(=O)[C@H](CCCNC(=N)N)N(C)C(=O)[C@@H](Cc2ccccc2)NC(=O)[C@H](Cc2c[nH]cn2)NC1=O [^177Lu-labeled CCZ01148, metal not drawn]

>  <excreta dose per gram or mL at 4 h (%ID/g)>
11.2

$$$$
>  <Compound>
CCCC[C@H](NC(=O)CN1CCC(NC(=O)[C@H](CCCCNC(=O)CN2CCN(CC(=O)O)CCN(CC(=O)O)CCN(CC(=O)O)CC2)NC(=O)CNC(=O)CCCc2ccc(-c3ccc(C)cc3)cc2)CC1)C(=O)N[C@H]1CC(=O)NCCCC[C@@H](C(N)=O)N(C)C(=O)[C@H](Cc2c[nH]c3ccccc23)NC(=O)[C@H](CCCNC(=N)N)N(C)C(=O)[C@@H](Cc2ccccc2)NC(=O)[C@H](Cc2c[nH]cn2)NC1=O [^177Lu-labeled CCZ01158, metal not drawn]

>  <excreta dose per gram or mL at 4 h (%ID/g)>
258

$$$$

* * *

Property: tissue uptake at 4 h; scope: individual compounds
test: Biodistribution of 177Lu-labeled αMSH analogues in mice bearing SK-MEL-1 human melanoma; conditions: male, NRG (NOD.Cg-Rag1tm1Mom I12rgtm1Wjl/SzJ), mouse, seminal glands, iv, total radioactivity
Quantity measured: tissue uptake at 4 h (%ID/g)

>  <Compound>
CCCC[C@H](NC(=O)CN1CCC(NC(=O)[C@H](CCCCNC(=O)CN2CCN(CC(=O)O)CCN(CC(=O)O)CCN(CC(=O)O)CC2)NC(=O)[C@H](CCC(=O)O)NC(=O)CCCc2ccc(I)cc2)CC1)C(=O)N[C@H]1CC(=O)NCCCC[C@@H](C(N)=O)N(C)C(=O)[C@H](Cc2c[nH]c3ccccc23)NC(=O)[C@H](CCCNC(=N)N)N(C)C(=O)[C@@H](Cc2ccccc2)NC(=O)[C@H](Cc2c[nH]cn2)NC1=O [^177Lu-labeled CCZ01118, metal not drawn]

>  <Observed>
1.53

$$$$
>  <Compound>
CCCC[C@H](NC(=O)CN1CCC(NC(=O)[C@H](CCCCNC(=O)CN2CCN(CC(=O)O)CCN(CC(=O)O)CCN(CC(=O)O)CC2)NC(=O)CNC(=O)CCCc2ccc(-c3ccc(C)cc3)cc2)CC1)C(=O)N[C@H]1CC(=O)NCCCC[C@@H](C(N)=O)N(C)C(=O)[C@H](Cc2c[nH]c3ccccc23)NC(=O)[C@H](CCCNC(=N)N)N(C)C(=O)[C@@H](Cc2ccccc2)NC(=O)[C@H](Cc2c[nH]cn2)NC1=O [^177Lu-labeled CCZ01158, metal not drawn]

>  <Observed>
0.79

$$$$
>  <Compound>
CCCC[C@H](NC(=O)CN1CCC(NC(=O)[C@H](CCCCNC(=O)CN2CCN(CC(=O)O)CCN(CC(=O)O)CCN(CC(=O)O)CC2)NC(=O)CNC(=O)CCCc2ccc(I)cc2)CC1)C(=O)N[C@H]1CC(=O)NCCCC[C@@H](C(N)=O)N(C)C(=O)[C@H](Cc2c[nH]c3ccccc23)NC(=O)[C@H](CCCNC(=N)N)N(C)C(=O)[C@@H](Cc2ccccc2)NC(=O)[C@H](Cc2c[nH]cn2)NC1=O [^177Lu-labeled CCZ01148, metal not drawn]

>  <Observed>
1.66

$$$$

* * *

experiment: Biodistribution of 177Lu-labeled αMSH analogues in mice bearing SK-MEL-1 human melanoma; conditions: male, NRG (NOD.Cg-Rag1tm1Mom I12rgtm1Wjl/SzJ), mouse, fat, iv, total radioactivity

>  <Molecule>
CCCC[C@H](NC(=O)CN1CCC(NC(=O)[C@H](CCCCNC(=O)CN2CCN(CC(=O)O)CCN(CC(=O)O)CCN(CC(=O)O)CC2)NC(=O)CNC(=O)CCCc2ccc(I)cc2)CC1)C(=O)N[C@H]1CC(=O)NCCCC[C@@H](C(N)=O)N(C)C(=O)[C@H](Cc2c[nH]c3ccccc23)NC(=O)[C@H](CCCNC(=N)N)N(C)C(=O)[C@@H](Cc2ccccc2)NC(=O)[C@H](Cc2c[nH]cn2)NC1=O [^177Lu-labeled CCZ01148, metal not drawn]

>  <tissue uptake at 1 h / %ID/g>
2.4

$$$$
>  <Molecule>
CCCC[C@H](NC(=O)CN1CCC(NC(=O)[C@H](CCCCNC(=O)CN2CCN(CC(=O)O)CCN(CC(=O)O)CCN(CC(=O)O)CC2)NC(=O)[C@H](CCC(=O)O)NC(=O)CCCc2ccc(I)cc2)CC1)C(=O)N[C@H]1CC(=O)NCCCC[C@@H](C(N)=O)N(C)C(=O)[C@H](Cc2c[nH]c3ccccc23)NC(=O)[C@H](CCCNC(=N)N)N(C)C(=O)[C@@H](Cc2ccccc2)NC(=O)[C@H](Cc2c[nH]cn2)NC1=O [^177Lu-labeled CCZ01118, metal not drawn]

>  <tissue uptake at 1 h / %ID/g>
1.18

$$$$
>  <Molecule>
CCCC[C@H](NC(=O)CN1CCC(NC(=O)[C@H](CCCCNC(=O)CN2CCN(CC(=O)O)CCN(CC(=O)O)CCN(CC(=O)O)CC2)NC(=O)CNC(=O)CCCc2ccc(-c3ccc(C)cc3)cc2)CC1)C(=O)N[C@H]1CC(=O)NCCCC[C@@H](C(N)=O)N(C)C(=O)[C@H](Cc2c[nH]c3ccccc23)NC(=O)[C@H](CCCNC(=N)N)N(C)C(=O)[C@@H](Cc2ccccc2)NC(=O)[C@H](Cc2c[nH]cn2)NC1=O [^177Lu-labeled CCZ01158, metal not drawn]

>  <tissue uptake at 1 h / %ID/g>
2.24

$$$$
